# PROTOCOL SUMMARY: ATPLite cytotoxicity assay
# RUN CONDITIONS: human, Huh7.5.1 cells
METRIC: CC50 (µM)
Answers are plain numbers, in µM.

CN1CCN(C(c2ccccc2)c2ccc(Cl)cc2)CC1 (racemic) [racemic CCZ, reference compound] : 49.8

[in] Answer with the recorded CC50 for the compound listed here: OCCOCCN1CCN(C(c2ccccc2)c2ccc(Cl)cc2)CC1 (racemic) [CH2CH2OCH2CH2OH (R,S)]
[out] 42.6

---

# Test system: HCV-Luc
# PROTOCOL SUMMARY: HCV-Luc infection assay
# Assay type: cell-based
# RUN CONDITIONS: Hepatitis C virus; Table 3; read-out: EC50
METRIC: pEC50
Numbers only, as −log10 of the molar value.

Consider the worked cases shown below.
CCN1CCN([C@@H](c2ccccc2)c2ccc(Cl)cc2)CC1 [Et (S)] : 7.70
CC(=O)NCCOCCOCCOCCOCCN1CCN(C(c2ccccc2)c2ccc(Cl)cc2)CC1 (racemic) [(CH2CH2O)4CH2CH2NHC(═O)Me (R,S)] : 6.77
NC(=O)COCCN1CCN(C(c2ccccc2)c2ccc(Cl)cc2)CC1 (racemic) [CH2CH2OCH2CONH2 (R,S)] : 6.99

Attention now turns to another entry.
[in] Answer with the recorded pEC50 for the compound listed here: CCCCN1CCN([C@H](c2ccccc2)c2ccc(Cl)cc2)CC1 [n-Bu (R)]
[out] 6.71
